We begin with pIC50 values for Caspase-6 (Homo sapiens), as collected from the published literature.
Target of assay: Caspase-6 (Homo sapiens)
Sequence (P55212 whole entry): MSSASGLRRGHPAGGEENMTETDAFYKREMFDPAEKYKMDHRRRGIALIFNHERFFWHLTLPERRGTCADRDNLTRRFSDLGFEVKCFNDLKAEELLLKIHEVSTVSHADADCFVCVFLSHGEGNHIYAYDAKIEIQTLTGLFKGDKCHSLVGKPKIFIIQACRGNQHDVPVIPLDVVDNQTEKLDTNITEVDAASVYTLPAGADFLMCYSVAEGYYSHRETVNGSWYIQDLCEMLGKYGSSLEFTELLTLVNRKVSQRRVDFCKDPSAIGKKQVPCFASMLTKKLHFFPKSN
pIC50: −log10 of the molar value.

Some molecules with known pIC50 results, for comparison:
Molecule | Test result
COC[C@@H]1CCCN1S(=O)(=O)c1ccc2c(c1)C(=O)C(=O)N2Cc1ccc(I)cc1 | < 3.30
CSc1ccc(CN2C(=O)C(=O)c3cc(S(=O)(=O)N4CCC[C@H]4COc4ccccc4)ccc32)cc1 | < 5.30
O=C1C(=O)N(Cc2ccc(F)nc2)c2ccc(S(=O)(=O)N3CC[C@H]3COc3ccccc3)cc21 | < 5.30
CC(C)[C@H](NC(=O)OCc1ccccc1)C(=O)NC(CC(=O)O)C(=O)CF (some centres undefined) | 7.74
COc1ccc(CN2C(=O)C(=O)c3cc(S(=O)(=O)N4CCC[C@H]4COc4ccccc4)ccc32)cc1 | < 5.30

Task: May I ask what pIC50 has been recorded for O=C1Nc2ccc(S(=O)(=O)N3CCC[C@H]3COc3ccccc3)cc2C1=O ?
Output: < 3.30

Task: May I ask what pIC50 has been recorded for O=C1C(=O)N(Cc2ccnc(F)c2)c2ccc(S(=O)(=O)N3CCC[C@H]3COc3ccccc3)cc21 ?
Output: < 5.30

Task: May I ask what pIC50 has been recorded for O=C(CCCl)Nc1ccc2c(c1)C(=O)C(=O)NC2=O ?
Output: 6.55

Task: May I ask what pIC50 has been recorded for O=C1C(=O)N(Cc2cn(CCF)nn2)c2ccc(S(=O)(=O)N3CCC[C@H]3COc3ccccc3)cc21 ?
Output: 5.00
